Where do the numbers come from? From paper PMC4286351.

Study system: rat P450 2B1 (Rattus norvegicus, UniProt P00176)
Sequence (P00176 whole entry): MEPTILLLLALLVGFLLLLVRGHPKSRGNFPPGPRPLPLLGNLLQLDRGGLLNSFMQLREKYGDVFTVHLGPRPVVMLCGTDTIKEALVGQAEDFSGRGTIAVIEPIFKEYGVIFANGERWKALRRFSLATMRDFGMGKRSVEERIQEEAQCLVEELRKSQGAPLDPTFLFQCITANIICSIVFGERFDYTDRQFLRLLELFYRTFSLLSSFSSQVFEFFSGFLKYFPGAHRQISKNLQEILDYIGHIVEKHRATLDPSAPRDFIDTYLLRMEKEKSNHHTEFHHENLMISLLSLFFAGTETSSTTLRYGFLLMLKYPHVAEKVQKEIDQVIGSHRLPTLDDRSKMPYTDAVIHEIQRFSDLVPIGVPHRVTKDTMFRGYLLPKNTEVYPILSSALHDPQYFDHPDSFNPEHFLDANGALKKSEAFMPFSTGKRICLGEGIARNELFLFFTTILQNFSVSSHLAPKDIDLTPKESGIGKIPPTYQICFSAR
Measurement protocol: biochemical
Format: biochemical
Values of IC50 strictly less than 5 µM map to Met, and values of at least 5 µM map to Not met.

// query Strictly below 5 µM in IC50? CCCOc1cccc2[nH]c3ccccc3c12
// result Met

// query Strictly below 5 µM in IC50? CCCOc1ccc2c(c1)[nH]c1ccccc12
// result Not met

// query Strictly below 5 µM in IC50? COc1cccc2[nH]c3ccccc3c12
// result Met

// query Strictly below 5 µM in IC50? C#CCOc1ccc2c(c1)[nH]c1ccccc12
// result Not met

// query Strictly below 5 µM in IC50? Oc1ccc2c(c1)[nH]c1ccccc12 [2-hydroxycarbazole, 2-Hydroxycarbazole, reference compound]
// result Not met

// query Strictly below 5 µM in IC50? CCOc1cccc2[nH]c3ccccc3c12
// result Met

// query Strictly below 5 µM in IC50? Oc1cccc2[nH]c3ccccc3c12 [4-hydroxycarbazole, 4-Hydroxycarbazole, reference compound]
// result Not met

// query Strictly below 5 µM in IC50? C#CCOc1cccc2[nH]c3ccccc3c12
// result Met

// query Strictly below 5 µM in IC50? COc1ccc2c(c1)[nH]c1ccccc12
// result Not met

// query Strictly below 5 µM in IC50? CCOc1ccc2c(c1)[nH]c1ccccc12
// result Not met

* * *

Could you please report measured IC50 for the items listed next?
A bare number is not enough; add the unit after it.

// query State its IC50 on human P450 1A2 (Homo sapiens): Oc1cccc2[nH]c3ccccc3c12 [4-hydroxycarbazole, 4-Hydroxycarbazole, reference compound]
Sequence (P05177 whole entry): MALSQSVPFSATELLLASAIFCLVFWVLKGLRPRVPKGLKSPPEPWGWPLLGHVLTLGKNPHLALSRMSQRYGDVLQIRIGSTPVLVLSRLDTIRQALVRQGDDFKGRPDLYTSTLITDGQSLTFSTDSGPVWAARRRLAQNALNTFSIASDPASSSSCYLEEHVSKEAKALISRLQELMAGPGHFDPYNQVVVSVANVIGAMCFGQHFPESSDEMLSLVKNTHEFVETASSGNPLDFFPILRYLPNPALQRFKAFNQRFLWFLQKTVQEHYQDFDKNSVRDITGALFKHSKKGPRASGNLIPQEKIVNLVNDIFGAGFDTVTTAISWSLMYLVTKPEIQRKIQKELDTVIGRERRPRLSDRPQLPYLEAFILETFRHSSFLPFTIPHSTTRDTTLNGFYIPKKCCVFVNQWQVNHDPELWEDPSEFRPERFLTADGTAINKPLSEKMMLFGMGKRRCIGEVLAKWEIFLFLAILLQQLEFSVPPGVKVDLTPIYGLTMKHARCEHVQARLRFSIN
// result 7.33 µM

// query State its IC50 on human P450 1A2 (Homo sapiens): Oc1ccc2c(c1)[nH]c1ccccc12 [2-hydroxycarbazole, 2-Hydroxycarbazole, reference compound]
// result 59.7 µM

* * *

Study system: human P450 1A1 (Homo sapiens, UniProt P04798)
Sequence (P04798 1-512): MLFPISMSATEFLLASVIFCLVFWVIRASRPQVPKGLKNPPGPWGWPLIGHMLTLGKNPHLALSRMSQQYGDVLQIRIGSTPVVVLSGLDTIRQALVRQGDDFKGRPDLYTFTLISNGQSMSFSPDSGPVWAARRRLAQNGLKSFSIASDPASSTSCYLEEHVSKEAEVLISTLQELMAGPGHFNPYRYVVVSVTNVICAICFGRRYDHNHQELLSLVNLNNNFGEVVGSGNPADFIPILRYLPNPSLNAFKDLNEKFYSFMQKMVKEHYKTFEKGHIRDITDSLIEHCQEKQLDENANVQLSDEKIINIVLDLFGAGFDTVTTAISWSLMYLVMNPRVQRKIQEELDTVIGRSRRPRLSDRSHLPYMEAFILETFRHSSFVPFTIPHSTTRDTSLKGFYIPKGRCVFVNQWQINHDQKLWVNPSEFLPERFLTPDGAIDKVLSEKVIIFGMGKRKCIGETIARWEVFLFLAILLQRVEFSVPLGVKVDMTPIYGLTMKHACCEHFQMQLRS
Measurement protocol: biochemical
Test readout: pIC50
Formally, pIC50 is defined as -log10 of the concentration c, with c in mol/L.

// query So what does the record say about pIC50 for COc1cccc2[nH]c3ccccc3c12 [I, 4-methoxy-9H-carbazole] ?
// result 4.67

// query So what does the record say about pIC50 for CCOc1ccc2c(c1)[nH]c1ccccc12 [VI, 2-ethoxy-9H-carbazole] ?
// result 4.81

// query So what does the record say about pIC50 for COc1ccc2c(c1)[nH]c1ccccc12 [V, 2-methoxy-9H-carbazole] ?
// result 4.46

// query So what does the record say about pIC50 for C#CCOc1cccc2[nH]c3ccccc3c12 [IV, 4-(prop-2-yn-1-yloxy)-9H-carbazole] ?
// result 5.18

// query So what does the record say about pIC50 for Oc1ccc2c(c1)[nH]c1ccccc12 [2-hydroxycarbazole, 2-Hydroxycarbazole, reference compound] ?
// result 4.15

// query So what does the record say about pIC50 for CCCOc1ccc2c(c1)[nH]c1ccccc12 [VII, 2-propoxy-9H-carbazole] ?
// result 4.58

// query So what does the record say about pIC50 for Oc1cccc2[nH]c3ccccc3c12 [4-hydroxycarbazole, 4-Hydroxycarbazole, reference compound] ?
// result 4.43

// query So what does the record say about pIC50 for CCCOc1cccc2[nH]c3ccccc3c12 [III, 4-propoxy-9H-carbazole] ?
// result 5.06

// query So what does the record say about pIC50 for C#CCOc1ccc2c(c1)[nH]c1ccccc12 [VIII, 2-(prop-2-yn-1-yloxy)-9H-carbazole] ?
// result 5.06

// query So what does the record say about pIC50 for CCOc1cccc2[nH]c3ccccc3c12 [II, 4-ethoxy-9H-carbazole] ?
// result 4.99
